# credit: patent US20120135923A1

# measurement.target: human melanocortin receptor subtype 5 (hMC5-R) (human), P33032
# Sequence (P33032 whole entry): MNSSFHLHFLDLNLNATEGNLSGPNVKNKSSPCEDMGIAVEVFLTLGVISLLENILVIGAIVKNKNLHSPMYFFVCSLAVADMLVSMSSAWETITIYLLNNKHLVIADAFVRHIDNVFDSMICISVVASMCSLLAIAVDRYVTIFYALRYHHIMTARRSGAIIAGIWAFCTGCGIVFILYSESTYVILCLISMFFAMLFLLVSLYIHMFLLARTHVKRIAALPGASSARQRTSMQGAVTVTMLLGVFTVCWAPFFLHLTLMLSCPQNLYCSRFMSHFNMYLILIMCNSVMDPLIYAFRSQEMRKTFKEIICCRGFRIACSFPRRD
# assay.notes: [125I]-NDP-α-MSH competition, membranes
Bridge positions count the residues as written; N and C are the ends. Square brackets hold non-standard residues; d marks the D form. Ends that are not written are not given here. 1Nal = N[C@@H](Cc1cccc2ccccc12)C(=O)O; 2Nal = N[C@@H](Cc1ccc2ccccc2c1)C(=O)O; d2Nal = N[C@H](Cc1ccc2ccccc2c1)C(=O)O; Bta = N[C@@H](Cc1csc2ccccc12)C(=O)O; Nle = CCCC[C@H](N)C(=O)O
Ki: recorded values
measured.attribute: Ki (nM)

AGC[dA]H[dF]RWC-NH2 (disulfide 3-9; also: hydantoin ring: C(O) bridging Ala-Gly) [Hydantoin(C(O)-(Ala-Gly))-c(Cys-D-Ala-His-D-Phe-Arg-Trp-Cys)-NH2] :: 18.9
GRC[dA]H[dF]RWC-NH2 (disulfide 3-9; also: hydantoin ring from C(O) with Gly1-Arg2) [Hydantoin(C(O)-(Gly-Arg))-c(Cys-D-Ala-His-D-Phe-Arg-Trp-Cys)-NH2] :: 783
VGC[dA]H[dF]RWC-NH2 (disulfide 3-9; also: hydantoin ring from C(O) with Val1-Gly2) [Hydantoin(C(O)-(Val-Gly))-c(Cys-D-Ala-His-D-Phe-Arg-Trp-Cys)-NH2] :: 33.4
RGC[dA]H[dF]RWC-NH2 (disulfide 3-9; also: hydantoin ring: C(O) bridging Arg-Gly) [Hydantoin(C(O)-(Arg-Gly))-c(Cys-D-Ala-His-D-Phe-Arg-Trp-Cys)-NH2] :: 650
Ac-WRC[dA]H[dF]RWC-NH2 (disulfide 3-9; SMILES CC(=O)N[C@@H](Cc1c[nH]c2ccccc12)C(=O)N[C@@H](CCCNC(=N)N)C(=O)N[C@H]1CSSC[C@@H](C(N)=O)NC(=O)[C@H](Cc2c[nH]c3ccccc23)NC(=O)[C@H](CCCNC(=N)N)NC(=O)[C@@H](Cc2ccccc2)NC(=O)[C@H](Cc2c[nH]cn2)NC(=O)[C@@H](C)NC1=O) [Ac-Trp-Arg-c(Cys-D-Ala-His-D-Phe-Arg-Trp-Cys)-NH2] :: 1470
IGC[dA]H[dF]RWC-NH2 (disulfide 3-9; also: hydantoin ring from C(O) with Ile1-Gly2) [Hydantoin(C(O)-(Ile-Gly))-c(Cys-D-Ala-His-D-Phe-Arg-Trp-Cys)-NH2] :: 28.9
Ac-CEH[d2Nal]R[2Nal]ACPPKD-NH2 (disulfide 1-8; SMILES CC(=O)N[C@H]1CSSC[C@@H](C(=O)N2CCC[C@H]2C(=O)N2CCC[C@H]2C(=O)N[C@@H](CCCCN)C(=O)N[C@@H](CC(=O)O)C(N)=O)NC(=O)[C@H](C)NC(=O)[C@H](Cc2ccc3ccccc3c2)NC(=O)[C@H](CCCNC(=N)N)NC(=O)[C@@H](Cc2ccc3ccccc3c2)NC(=O)[C@H](Cc2c[nH]cn2)NC(=O)[C@H](CCC(=O)O)NC1=O) [Ac-c(Cys-Glu-His-D-2-Nal-Arg-2-Nal-Ala-Cys)-Pro-Pro-Lys-Asp-NH2] :: 359
[Nle]GC[dA]H[dF]RWC-NH2 (disulfide 3-9; also: N-terminal hydantoin: C(O) bridges X1 N-terminal N and G2 backbone N, bridge at N via C(O), other end not in the chain) [Hydantoin(C(O)-(Nle-Gly))-c(Cys-D-Ala-His-D-Phe-Arg-Trp-Cys)-NH2] :: 21.3
Ac-YRC[dA]H[dF]RWC-NH2 (disulfide 3-9) [Ac-Tyr-Arg-c(Cys-D-Ala-His-D-Phe-Arg-Trp-Cys)-NH2] :: 714
GGC[dA]H[dF]RWC-NH2 (disulfide 3-9; also: hydantoin ring from C(O) with Gly1-Gly2) [Hydantoin(C(O)-(Gly-Gly))-c(Cys-D-Ala-His-D-Phe-Arg-Trp-Cys)-NH2] :: 50
LGC[dA]H[dF]RWC-NH2 (disulfide 3-9; also: hydantoin ring from C(O) with Leu1-Gly2) [Hydantoin(C(O)-(Leu-Gly))-c(Cys-D-Ala-His-D-Phe-Arg-Trp-Cys)-NH2] :: 44.6
Ac-CEH[d2Nal]R[Bta]ACPPKD-NH2 (disulfide 1-8; SMILES CC(=O)N[C@H]1CSSC[C@@H](C(=O)N2CCC[C@H]2C(=O)N2CCC[C@H]2C(=O)N[C@@H](CCCCN)C(=O)N[C@@H](CC(=O)O)C(N)=O)NC(=O)[C@H](C)NC(=O)[C@H](Cc2csc3ccccc23)NC(=O)[C@H](CCCNC(=N)N)NC(=O)[C@@H](Cc2ccc3ccccc3c2)NC(=O)[C@H](Cc2c[nH]cn2)NC(=O)[C@H](CCC(=O)O)NC1=O) [Ac-c(Cys-Glu-His-D-2-Nal-Arg-Bal-Ala-Cys)-Pro-Pro-Lys-Asp-NH2] :: 844
Ac-FRC[dA]H[dF]RWC-NH2 (disulfide 3-9; SMILES CC(=O)N[C@@H](Cc1ccccc1)C(=O)N[C@@H](CCCNC(=N)N)C(=O)N[C@H]1CSSC[C@@H](C(N)=O)NC(=O)[C@H](Cc2c[nH]c3ccccc23)NC(=O)[C@H](CCCNC(=N)N)NC(=O)[C@@H](Cc2ccccc2)NC(=O)[C@H](Cc2c[nH]cn2)NC(=O)[C@@H](C)NC1=O) [Ac-Phe-Arg-c(Cys-D-Ala-His-D-Phe-Arg-Trp-Cys)-NH2] :: 491
Ac-CEH[d2Nal]R[1Nal]ACPPKD-NH2 (disulfide 1-8; SMILES CC(=O)N[C@H]1CSSC[C@@H](C(=O)N2CCC[C@H]2C(=O)N2CCC[C@H]2C(=O)N[C@@H](CCCCN)C(=O)N[C@@H](CC(=O)O)C(N)=O)NC(=O)[C@H](C)NC(=O)[C@H](Cc2cccc3ccccc23)NC(=O)[C@H](CCCNC(=N)N)NC(=O)[C@@H](Cc2ccc3ccccc3c2)NC(=O)[C@H](Cc2c[nH]cn2)NC(=O)[C@H](CCC(=O)O)NC1=O) [Ac-c(Cys-Glu-His-D-2-Nal-Arg-1-Nal-Ala-Cys)-Pro-Pro-Lys-Asp-NH2] :: 348
